Biological target: human DGKα (Homo sapiens, UniProt P23743)
Construct: TVMV protease cleavage site (C); Hexa-His (C); made in house; host or cells: Sf9 insect cells (baculovirus, Bac-to-Bac)
Sequence (P23743 with tags, fused parts or gaps): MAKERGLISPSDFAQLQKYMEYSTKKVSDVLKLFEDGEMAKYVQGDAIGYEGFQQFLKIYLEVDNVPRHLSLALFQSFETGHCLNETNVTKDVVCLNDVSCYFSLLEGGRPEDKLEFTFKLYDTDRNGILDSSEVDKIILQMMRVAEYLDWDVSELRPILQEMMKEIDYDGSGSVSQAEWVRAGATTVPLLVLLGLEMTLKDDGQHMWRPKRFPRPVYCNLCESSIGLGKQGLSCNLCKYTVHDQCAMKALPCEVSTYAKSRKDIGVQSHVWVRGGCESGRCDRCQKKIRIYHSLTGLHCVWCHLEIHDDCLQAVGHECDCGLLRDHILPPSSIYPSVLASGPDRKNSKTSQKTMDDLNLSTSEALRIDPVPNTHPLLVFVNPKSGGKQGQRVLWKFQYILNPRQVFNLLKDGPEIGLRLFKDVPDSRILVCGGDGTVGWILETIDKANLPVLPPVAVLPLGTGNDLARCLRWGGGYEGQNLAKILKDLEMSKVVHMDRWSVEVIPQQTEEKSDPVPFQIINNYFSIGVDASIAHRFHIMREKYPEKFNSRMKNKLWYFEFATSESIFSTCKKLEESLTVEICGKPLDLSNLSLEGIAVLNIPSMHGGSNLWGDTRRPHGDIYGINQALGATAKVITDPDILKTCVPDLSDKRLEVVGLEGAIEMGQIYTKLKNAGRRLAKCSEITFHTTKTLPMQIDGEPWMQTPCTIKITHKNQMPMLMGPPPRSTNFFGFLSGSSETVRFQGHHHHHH
Assay: DGKα LIPGLO assay (extruded liposome substrate), in vitro DGK inhibition
Type: biochemical
Settings: liposome (LIPGLO) assay; read-out: DGKa LIPGLO IC50
Recorded endpoint: IC50 (nM)

* C[C@@H]1CN(c2cc(=O)n(C)c3ccc(C#N)nc23)[C@@H](C)CN1C(c1cccc(F)c1)c1ccc(C(F)(F)F)cn1 (stereo partly drawn) [Example 370] | 1100

I = CCC(c1ccc(C2CC2)cc1)N1C[C@H](C)N(c2cc(=O)n(C)c3ccc(C#N)nc23)C[C@H]1C (single isomer, unassigned) [Example 1220]
II = C[C@@H]1CN(c2c(F)c(=O)n(C)c3ccc(C#N)nc23)CCN1C(c1ccc(F)cc1)c1ccc(F)cc1
Lowest IC50? choose I or II Label of pick, please.
I
(I: 110 nM, II: 500 nM)

###

Target: human DGKα (Homo sapiens, UniProt P23743)
Construct: TVMV protease cleavage site (C); Hexa-His (C); made in house; host or cells: Sf9 insect cells (baculovirus, Bac-to-Bac)
Experiment: DGKα LIPGLO assay (extruded liposome substrate), in vitro DGK inhibition
Assay type: biochemical
Details: liposome (LIPGLO) assay; read-out: DGKa LIPGLO IC50
Recorded endpoint: IC50 (nM)

Guide cases for IC50, answers given:
* C[C@@H]1CN(c2cc(=O)n(C)c3ccc(C#N)nc23)[C@@H](C)CN1Cc1c(F)cccc1Cl | 390
* CC[C@@H]1CN(c2cc(=O)n(C)c3ccc(C#N)nc23)[C@@H](C)CN1C(c1ccc(F)cc1)c1ccc(Cl)cc1 (stereo partly shown) [Example 1101] | 350

P = C[C@@H]1CN(c2cc(=O)n(C)c3ccc(C#N)nc23)[C@@H](C)CN1C(c1cccc(F)c1)c1ccccn1 (stereo partly shown) [Example 404]
Q = C[C@@H]1CN(c2cc(=O)n(C)c3ccc(C#N)nc23)[C@@H](C)CN1Cc1cc(-c2ccccc2C#N)no1
Given the listed records, identify the one among P and Q with higher IC50. Label of pick, please.
Q

###

Target: human DGKα (Homo sapiens)
Construct: TVMV protease cleavage site (C); Hexa-His (C); made in house; host or cells: Sf9 insect cells (baculovirus, Bac-to-Bac)
Assay: DGKα LIPGLO assay (extruded liposome substrate), in vitro DGK inhibition
Format: biochemical
Conditions: liposome (LIPGLO) assay; read-out: DGKa LIPGLO IC50
pIC50: −log10 of the molar value.
Recorded endpoint: pIC50

Guide cases for pIC50, answers given:
* C[C@@H]1CN(c2cc(=O)n(C)c3ccc(C#N)nc23)[C@@H](C)CN1C(c1ccc(F)cc1)c1cccc2c1OC(F)(F)O2 (stereo partly drawn) [Example 668] | 3.92
* CC(c1nc(C2CC2)cs1)N1C[C@H](C)N(c2cc(=O)n(C)c3ccc(C#N)nc23)C[C@H]1C (single isomer, unassigned) [Example 646] | 5.80
* CCC(c1ccc(OC(F)(F)F)cc1F)N1C[C@H](CC)N(c2cc(=O)n(C)c3ccc(C#N)nc23)C[C@H]1C (single isomer, unassigned) [Example 1378] | 5.85
* CC(c1cc(F)c(F)cc1Cl)N1C[C@H](C)N(c2cc(=O)n(C)c3ccc(C#N)nc23)C[C@H]1C (stereo partly drawn) | 4.57
* CC[C@H]1CN(C(c2ccc(F)cc2)c2ccccn2)[C@H](CC)CN1c1cc(=O)n(C)c2ccc(C#N)nc12 (single isomer, unassigned) | 7.31
* C[C@@H]1CN(c2c(C#N)c(=O)n(C)c3ccc(C#N)nc23)CCN1C(c1ccc(F)cc1)c1cn(C)cn1 (single isomer, unassigned) [Example 1026] | 4.70
* CC[C@H]1CN(C(c2cccc(F)c2)c2ccc(OC)cn2)[C@H](CC)CN1c1cc(=O)n(C)c2ccc(C#N)nc12 (stereo partly drawn) [Example 1048] | 7.08
* C[C@@H]1CN(c2cc(=O)n(C)c3ccc(C#N)nc23)[C@@H](C)CN1C(c1ccc(F)c(F)c1)c1ccccn1 (single isomer, unassigned) [Example 375] | 6.57
* C[C@@H]1CN(c2cc(=O)n(C)c3ccc(C#N)nc23)[C@@H](C)CN1C(c1ccc(F)cc1)c1ccccn1 (single isomer, unassigned) [Example 197] | 6.70
* Cc1ccc(C(c2ccc(Cl)cn2)N2C[C@H](C)N(c3cc(=O)n(C)c4ccc(C#N)nc34)C[C@H]2C)cc1 (single isomer, unassigned) [Example 200] | 7.21

1 = CC[C@H]1CN(C(c2ccc(F)cc2)c2ccc(F)cc2)[C@H](C)CN1c1cc(=O)n(C)c2ccc(C#N)nc12
2 = C[C@@H]1CN(c2cc(=O)n(C)c3ccc(C#N)nc23)[C@@H](C)CN1C(c1ccc(F)cc1)c1cccc(C(F)(F)F)n1 (stereo partly drawn) [Example 678]
3 = CC[C@@H]1CN(c2cc(=O)n(C)c3ccc(C#N)nc23)[C@@H](C)CN1C(c1ccc(F)cc1)c1ccon1 (single isomer, unassigned) [Example 1114]
4 = COc1ccc2c(n1)c(N1C[C@@H](C)N(C(c3ccc(F)cc3)c3ccc(Cl)cc3)C[C@@H]1C)cc(=O)n2C (stereo partly drawn)
Order the records, beginning with the lowest pIC50 and ending with the highest. Answer format: the labels, ordered as requested.
4, 2, 1, 3

I = [2H]C(C)(c1ccc(F)cc1)N1C[C@H](C)N(c2c(F)c(=O)n(C)c3ccc(C#N)nc23)C[C@H]1C (single isomer, unassigned) [Example 424]
II = C[C@@H]1CN(c2c(F)c(=O)n(C)c3ccc(C#N)nc23)[C@@H](C)CN1C(c1ccc(F)cc1)c1c(F)cccc1F (single isomer, unassigned) [Example 329]
III = COCc1cc(C(C)N2C[C@H](C)N(c3cc(=O)n(C)c4ccc(C#N)nc34)C[C@H]2C)ccc1F (single isomer, unassigned) [Example 1316]
IV = COc1ccc(C(c2ccc(F)cc2)N2C[C@H](C)N(c3cc(=O)n(C)c4ccc(C#N)nc34)C[C@H]2C)cc1 (stereo partly drawn) [Example 658]
Arrange the 4 compounds from largest to smallest pIC50. Answer format: the labels, ordered as requested.
I, IV, III, II

A = CCC(c1ccc(OCCC2CC2)cc1)N1C[C@H](C)N(c2cc(=O)n(C)c3ccc(C#N)nc23)C[C@H]1C (single isomer, unassigned) [Example 1445]
B = Cc1ccc(C(c2cccc(F)n2)N2C[C@H](C)N(c3cc(=O)n(C)c4ccc(C#N)nc34)C[C@H]2C)cc1 (stereo partly drawn) [Example 476]
Lowest pIC50? choose A or B Label of pick, please.
A

1 = CC(c1ccc2nccnc2c1)N1C[C@H](C)N(c2cc(=O)n(C)c3ccc(C#N)nc23)C[C@H]1C (single isomer, unassigned) [Example 650]
2 = CC[C@@H]1CN(c2cc(=O)n(C)c3ccc(C#N)nc23)[C@@H](CC)CN1Cc1ccc(OC(F)(F)F)cc1F
3 = CCn1cc(F)c2c(CN3C[C@H](C)N(c4cc(=O)n(C)c5ccc(C#N)nc45)C[C@H]3C)cccc21
4 = COc1cc(F)c(CN2C[C@H](C)N(c3cc(=O)n(C)c4ccc(C#N)nc34)C[C@H]2C)c(F)c1
Order the records, beginning with the lowest pIC50 and ending with the highest. Answer format: the labels, ordered as requested.
3, 1, 4, 2
(3: 5.05, 1: 5.60, 4: 7.15, 2: 7.64)

###

Target: human DGKζ (Homo sapiens, UniProt Q13574)
Construct: TVMV protease cleavage site (C); Hexa-His (C); made in house; host or cells: Sf9 insect cells (baculovirus, Bac-to-Bac)
Sequence (Q13574 with tags, fused parts or gaps isoform Q13574-4): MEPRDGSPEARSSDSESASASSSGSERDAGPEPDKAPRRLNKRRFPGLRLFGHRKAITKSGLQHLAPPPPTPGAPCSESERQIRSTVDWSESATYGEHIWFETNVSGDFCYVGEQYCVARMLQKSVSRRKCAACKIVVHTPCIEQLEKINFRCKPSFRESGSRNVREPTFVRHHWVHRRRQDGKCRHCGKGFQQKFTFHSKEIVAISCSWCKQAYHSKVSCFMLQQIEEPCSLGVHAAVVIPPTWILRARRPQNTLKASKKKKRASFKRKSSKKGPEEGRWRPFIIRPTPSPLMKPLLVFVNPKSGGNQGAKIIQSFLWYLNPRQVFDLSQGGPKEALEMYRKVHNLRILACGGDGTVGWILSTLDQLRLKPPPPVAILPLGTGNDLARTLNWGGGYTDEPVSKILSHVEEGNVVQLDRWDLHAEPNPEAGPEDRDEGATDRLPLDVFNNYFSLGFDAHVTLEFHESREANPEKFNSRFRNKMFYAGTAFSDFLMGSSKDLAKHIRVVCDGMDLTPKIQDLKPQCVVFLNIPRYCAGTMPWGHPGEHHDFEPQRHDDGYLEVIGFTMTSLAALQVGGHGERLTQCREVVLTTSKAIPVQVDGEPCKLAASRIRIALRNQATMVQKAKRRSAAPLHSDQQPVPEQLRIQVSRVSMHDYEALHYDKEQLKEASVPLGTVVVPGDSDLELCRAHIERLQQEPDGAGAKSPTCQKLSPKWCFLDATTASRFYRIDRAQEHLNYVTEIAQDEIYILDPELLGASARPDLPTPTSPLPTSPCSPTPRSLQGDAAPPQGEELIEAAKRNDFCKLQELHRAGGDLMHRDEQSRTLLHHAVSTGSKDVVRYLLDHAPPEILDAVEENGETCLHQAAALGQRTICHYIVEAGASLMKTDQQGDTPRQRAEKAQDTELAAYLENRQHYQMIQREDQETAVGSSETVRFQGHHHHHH
Experiment: DGKζ LIPGLO assay (extruded liposome substrate), in vitro DGK inhibition
Type: biochemical
Details: liposome (LIPGLO) assay; read-out: DGKz LIPGLO IC50
Recorded endpoint: IC50 (µM)

• C[C@@H]1CN(c2cc(=O)n(C)c3ccc(C#N)nc23)[C@@H](C)CN1C(c1cccc(F)c1)c1ccccn1 (stereo partly drawn) [Example 404] = 4.1
• CC[C@@H]1CN(c2cc(=O)n(C)c3ccc(C#N)nc23)[C@@H](CC)CN1Cc1ccc2c(c1)OC(F)(F)O2 = 1.8
• C[C@@H]1CN(c2cc(=O)n(C)c3ccc(C#N)nc23)[C@@H](C)CN1C(c1ccc(OC(F)(F)F)cc1)c1cccc(F)n1 (single isomer, unassigned) [Example 367] = 2.7
• Cn1c(=O)c(C#N)c(N2CCN(C(c3ccc(F)cc3)c3ccc(F)cc3)C(C(N)=O)C2)c2nc(C#N)ccc21 (single isomer, unassigned) [Example 57] = 140

a = C[C@@H]1CN(c2c(C#N)c(=O)n(C)c3ccc(C#N)nc23)CCN1C(c1ccc(F)cc1)c1cncnc1 (stereo partly drawn) [Example 317]
b = CC(c1csc(C(F)(F)F)n1)N1C[C@H](C)N(c2cc(=O)n(C)c3ccc(C#N)nc23)C[C@H]1C (single isomer, unassigned)
Given the listed records, identify the one among a and b with higher IC50. Label of pick, please.
a
(a: 13 µM, b: 0.36 µM)

Origin of values: patent US10669272B2
